Values from patent US6649166B1

EXPERIMENTAL SYSTEM: HLA-DR molecule DRB1*1301 (Homo sapiens, UniProt P01903+P01911, A100E/A169T/K41T/L162R/M171V/P40S/Q125H/Q178H/Q39Y/Q99D/R42S/S66N/T262R/W38E/Y61H)
EXPERIMENT SUMMARY: HLA-DR/peptide binding competition test, DRB1*1301
CONDITION CONTEXT: active = IC50 less than 1000 nM
ASSAY READOUT: binding to allele 1301 (in words)

• P121-133: peptide of thirteen residues, positions 121-133 of API m1 (SKPKVYQWFDLRK) [Peptide P121-133] = very active
• P122-134 (KPKVYQWFDLRKY) [Peptide P122-134] = very active

---

EXPERIMENTAL SYSTEM: HLA-DR molecule DRB1*1101 (Homo sapiens, UniProt P01903+P01911, A100R/A169T/A87E/I96F/K41T/L162R/M171V/P40S/Q125H/Q178H/Q39Y/Q99D/R42S/S66Y/T262R/V115G/W38E)
EXPERIMENT SUMMARY: HLA-DR/peptide binding competition test, DRB1*1101
CONDITION CONTEXT: active = IC50 less than 1000 nM
ASSAY READOUT: binding to allele 1101 (in words)

In the examples that follow, each entry is paired with its recorded binding to allele 1101 (in words).
* P121-133: peptide of thirteen residues, positions 121-133 of API m1 (SKPKVYQWFDLRK) [Peptide P121-133] | very active
* P93-110: peptide of 18 amino acids, positions 93-110 of API m1 (TKCYKLEHPVTGCGERTE) [Peptide P93-110] | ligands
* P77-94 (TISSYFVGKMYFNLIDTK) [Peptide P77-94] | bind
* P85-102: peptide of 18 amino acids, positions 85-102 of API m1 (KMYFNLIDTKCYKLEHPV) [Peptide P85-102] | ligands

Now consider a different substance.
Would you mind telling me what binding to allele 1101 (in words) value was observed for P122-134 (KPKVYQWFDLRKY) [Peptide P122-134] ?
very active
